Attribution: ChEMBL document CHEMBL4837266

- test system: Cholinesterase (Equus caballus, UniProt P81908)
- Sequence (P81908 whole entry): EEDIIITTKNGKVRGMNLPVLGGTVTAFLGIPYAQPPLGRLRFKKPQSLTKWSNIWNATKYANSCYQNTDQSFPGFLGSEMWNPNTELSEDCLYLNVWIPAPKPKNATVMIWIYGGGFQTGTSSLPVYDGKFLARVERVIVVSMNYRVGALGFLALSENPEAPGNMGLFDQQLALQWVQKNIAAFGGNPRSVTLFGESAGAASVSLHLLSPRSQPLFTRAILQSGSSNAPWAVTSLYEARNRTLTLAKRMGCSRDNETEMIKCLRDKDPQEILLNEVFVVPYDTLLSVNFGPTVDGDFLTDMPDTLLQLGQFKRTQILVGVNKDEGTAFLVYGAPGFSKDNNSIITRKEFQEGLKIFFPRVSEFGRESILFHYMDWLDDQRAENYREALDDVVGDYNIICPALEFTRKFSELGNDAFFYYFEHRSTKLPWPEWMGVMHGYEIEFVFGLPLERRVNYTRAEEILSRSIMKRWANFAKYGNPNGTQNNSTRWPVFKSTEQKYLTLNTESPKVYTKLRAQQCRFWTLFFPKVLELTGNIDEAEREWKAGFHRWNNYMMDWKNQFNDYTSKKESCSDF
- assay name: Mixed type inhibition of equine serum BuChE using S-butyrylthiocholine iodide as a substrate by Cornish-Bowden plot analysis
pKi: −log10 of the molar value.
measure: pKi

>  <compound>
CC(C)(C)NC(=O)C1(N2CCCC2=O)C(=O)N(c2ccccc2)c2ccccc21 (stereo not drawn)

>  <test system>
Cholinesterase (Equus caballus, UniProt P81908)

>  <measured result>
4.74

$$$$
>  <compound>
CC(C)(C)CC(C)(C)NC(=O)C1(N2CCCC2=O)C(=O)Nc2ccccc21 (stereo not drawn)

>  <test system>
Cholinesterase (Equus caballus, UniProt P81908)

>  <measured result>
4.82

$$$$
>  <compound>
CC(C)(C)CC(C)(C)NC(=O)C1(N2CCC2=O)C(=O)N(Cc2ccccc2)c2ccccc21 (stereo not drawn)

>  <test system>
Cholinesterase (Equus caballus, UniProt P81908)

>  <measured result>
5.32

$$$$
